Value source: patent EP0004835A1

Assay: Acute toxicity in mice
Conditions: mouse, in vivo, po, starved male mice (NMRI); M = 378.5
measurement.type: LD50

IN: # return recorded LD50 for entry COc1ccccc1CCC(C)(C)NCC(O)c1ccc(O)cc1.Cl (stereo not shown)
OUT: 450 µmol/kg

* * *

Experiment: Acute toxicity in mice
Settings: mouse, in vivo, ip, male mice (NMRI); M = 378.5
measurement.type: LD50 (µmol/kg)
Your answer should be a plain number; it is taken to be in µmol/kg.

IN: # return recorded LD50 for entry COc1ccccc1CCC(C)(C)NCC(O)c1ccc(O)cc1.Cl (stereo not shown) [D 2343]
OUT: 120

* * *

Assay: Acute toxicity in mice
Details: mouse, in vivo, ip, male mice (NMRI)
measurement.type: LD50 (mg/kg)
Your answer should be a plain number; it is taken to be in mg/kg.

IN: # return recorded LD50 for entry COc1ccccc1CCC(C)(C)NCC(O)c1ccc(O)cc1.Cl (stereo not shown)
OUT: 45

* * *

Assay: Acute toxicity in mice
Conditions: mouse, in vivo, po, starved male mice (NMRI)
measurement.type: LD50 (mg/kg)
Your answer should be a plain number; it is taken to be in mg/kg.

IN: # return recorded LD50 for entry COc1ccccc1CCC(C)(C)NCC(O)c1ccc(O)cc1.Cl (stereo not shown) [D 2343]
OUT: 170

* * *

Assay: Acute toxicity in mice
Settings: mouse, in vivo, sc, male mice (NMRI); M = 378.5
measurement.type: LD50 (µmol/kg)
Your answer should be a plain number; it is taken to be in µmol/kg.

IN: # return recorded LD50 for entry COc1ccccc1CCC(C)(C)NCC(O)c1ccc(O)cc1.Cl (stereo not shown)
OUT: 130

* * *

Exercise: for every item that follows, state its recorded pIC50.
Target: a-receptor
Assay: a-receptor blocking activity, noradrenaline-induced contraction of rabbit aortic strips
Details: rabbit aortic strips, compound added 10 minutes before noradrenaline; called EC 50; 6 preparations from 3 animals; read-out: Concentration inhibiting 50 % noradrenaline-induced contraction
Friendly reminder that pIC50 comes from taking -log10 of the concentration in mol/L.

IN: # return recorded pIC50 for entry CC(=O)Oc1cc(C(C)C)c(OCCN(C)C)cc1C [Thymoxamine, thymoxamine, reference compound]
OUT: 5.82

IN: # return recorded pIC50 for entry COc1ccccc1CCC(C)(C)NCC(O)c1ccc(O)cc1.Cl (stereo not drawn) [D 2343, hydrochloride]
OUT: 6.22

IN: # return recorded pIC50 for entry COc1ccccc1CC(C)(C)NCC(O)c1ccc(O)cc1 (stereo not drawn) [[drawing]]
OUT: 6.30

* * *

Experiment: Acute toxicity in mice
Settings: mouse, in vivo, iv, male mice (NMRI); M = 378.5
measurement.type: LD50 (µmol/kg)
Your answer should be a plain number; it is taken to be in µmol/kg.

IN: # return recorded LD50 for entry COc1ccccc1CCC(C)(C)NCC(O)c1ccc(O)cc1.Cl (stereo not shown) [D 2343]
OUT: 35
